Listing of entries alongside the reported Activity.
System: SF-295
procedure-text: Induction of apoptosis in human SF295 cells assessed as apoptotic nuclei at 5 uM after 24 hrs by acridine orange/ethidium bromide staining based fluorescence microscopy
Assay type: functional
readout-kind: Activity (%)

- C=CCC1=C(OC2(CC=C)C(=O)C(=O)c3ccccc3C2=O)C(=O)c2ccccc2C1=O (stereo not drawn): 8.3
- Cc1cccc(-c2nc3ccc4c(c3[nH]2)C(=O)c2ccccc2C4=O)c1: 10.05
- O=C1c2ccccc2C(=O)c2c1ccc1nc(-c3ccccc3)[nH]c21: 7.32

* * *

Test system: PBMC
procedure-text: Cytotoxicity against human PBMC cells after 72 hrs by Alamar Blue assay
Type: cell-based
pIC50: −log10 of the molar value.
readout-kind: pIC50

- CC(C)CCC1=C(O)C(=O)C2=C(CCCC2)C1=O: < 4.70
- O=C1c2ccccc2C(=O)c2c1ccc1nc(-c3cccc(O)c3)[nH]c21: < 4.83
- CC(C)CC1=C(O)C(=O)c2ccccc2C1=O: < 4.66
- CC(C)CCC1=C(OC2(CCC(C)C)C(=O)C(=O)c3ccccc3C2=O)C(=O)c2ccccc2C1=O (stereo not given): < 4.99
- CC1(C)OC2=C(C(=O)C(=O)c3ccccc32)[C@H](N=[N+]=[N-])[C@H]1Br: 5.45
- CC(C)CC1=C(OC2(CC(C)C)C(=O)C(=O)c3ccccc3C2=O)C(=O)c2ccccc2C1=O (stereo not given): < 4.96
- CC1(C)CC2=C(O1)c1ccccc1C(=O)C2=O: < 4.66
- CCCC1=C(O)C(=O)C2=C(CCCC2)C1=O: < 4.64
- CCCC1=C(OC2(CCC)C(=O)C(=O)C3=C(CCCC3)C2=O)C(=O)C2=C(CCCC2)C1=O (stereo not given): < 4.94
- CC1(C)OC2=C(C(=O)C(=O)c3ccccc32)[C@H](n2cc(-c3ccc(F)cc3)nn2)[C@H]1Br: 5.47
